- tgt: Neuronal acetylcholine receptor; alpha3/beta4 (Rattus norvegicus, UniProt P04757+P12392)
- Sequence (P04757 whole entry): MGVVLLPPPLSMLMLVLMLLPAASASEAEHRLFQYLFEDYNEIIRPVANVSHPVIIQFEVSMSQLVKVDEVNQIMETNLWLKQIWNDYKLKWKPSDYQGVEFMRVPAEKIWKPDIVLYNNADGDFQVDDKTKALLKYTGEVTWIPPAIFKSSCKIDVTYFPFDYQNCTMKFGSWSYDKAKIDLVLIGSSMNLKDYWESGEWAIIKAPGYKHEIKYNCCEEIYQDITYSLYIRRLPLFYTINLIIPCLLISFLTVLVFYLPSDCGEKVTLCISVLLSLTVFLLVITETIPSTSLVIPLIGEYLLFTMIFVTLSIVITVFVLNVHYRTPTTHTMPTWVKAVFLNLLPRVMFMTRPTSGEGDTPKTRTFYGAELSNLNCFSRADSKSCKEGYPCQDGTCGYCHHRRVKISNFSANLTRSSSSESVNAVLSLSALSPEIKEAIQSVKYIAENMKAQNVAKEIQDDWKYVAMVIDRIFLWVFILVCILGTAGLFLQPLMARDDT
- Sequence (P12392 whole entry): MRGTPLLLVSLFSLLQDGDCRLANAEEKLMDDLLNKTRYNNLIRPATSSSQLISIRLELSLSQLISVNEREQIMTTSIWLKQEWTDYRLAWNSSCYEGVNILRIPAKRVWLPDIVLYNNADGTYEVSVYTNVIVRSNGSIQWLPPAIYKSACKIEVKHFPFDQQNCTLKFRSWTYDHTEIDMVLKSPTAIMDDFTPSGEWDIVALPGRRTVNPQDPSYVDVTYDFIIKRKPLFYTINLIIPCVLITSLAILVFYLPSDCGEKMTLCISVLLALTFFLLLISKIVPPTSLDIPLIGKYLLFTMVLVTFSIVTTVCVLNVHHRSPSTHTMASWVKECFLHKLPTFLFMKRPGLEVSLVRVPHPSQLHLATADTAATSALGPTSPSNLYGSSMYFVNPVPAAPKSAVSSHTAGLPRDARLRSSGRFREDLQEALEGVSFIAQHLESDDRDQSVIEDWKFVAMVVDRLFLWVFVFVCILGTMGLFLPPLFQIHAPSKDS
- assayRemarks: Antagonist activity at rat alpha3beta4 nAChR expressed in HEK293 cells by FMP assay
- Format: functional, cell-based, Homo sapiens
- settings: hek293
endpointName: pIC50

Consider C1=C2C[N+]3(Cc4ccccc4)CC[C@@H]4[C@@H]5[C@H]([C@@H](OC1)N1c6ccccc6[C@@]67CC[N+]8(Cc9ccccc9)CC9=CCO[C@H]([C@@H]([C@H]16)[C@H]9C[C@@H]78)N5c1ccccc1)[C@H]2C[C@@H]43.[Br-].[Br-] (stereo partly drawn) . Its measured pIC50 is < 4

Consider C[N+](C)(C)Cc1c2n(c3ccccc13)Cc1c(C[N+](C)(C)C)c3ccccc3n1C2.[I-].[I-] . Its measured pIC50 is < 4

Consider C[N+](C)(Cc1ccc([N+](=O)[O-])cc1)Cc1c2n(c3ccccc13)Cc1c(C[N+](C)(C)Cc3ccc([N+](=O)[O-])cc3)c3ccccc3n1C2.[Br-].[Br-] . Its measured pIC50 is < 4
